- Target entity: human orexin-2 receptor (OX2R) (Homo sapiens, UniProt O43614)
- Construct: expressed in transfected cells
- Sequence (O43614 1-444): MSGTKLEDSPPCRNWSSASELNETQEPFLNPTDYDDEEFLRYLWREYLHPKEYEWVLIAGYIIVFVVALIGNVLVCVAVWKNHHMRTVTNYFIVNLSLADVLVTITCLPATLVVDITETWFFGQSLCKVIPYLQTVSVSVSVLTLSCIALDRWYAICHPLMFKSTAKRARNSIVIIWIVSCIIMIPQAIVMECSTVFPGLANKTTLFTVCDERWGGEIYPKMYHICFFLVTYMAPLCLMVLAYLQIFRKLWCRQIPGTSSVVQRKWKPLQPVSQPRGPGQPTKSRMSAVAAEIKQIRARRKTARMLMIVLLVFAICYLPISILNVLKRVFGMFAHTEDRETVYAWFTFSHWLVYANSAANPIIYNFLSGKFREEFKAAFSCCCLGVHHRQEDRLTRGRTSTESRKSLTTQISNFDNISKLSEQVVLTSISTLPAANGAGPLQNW
- Assay overview: Human OX2R IP1 assay
- Format: cell-based
- Stated conditions: T-Rex CHO cells stably overexpressing human OX2R; IP1 accumulation; 1 hr at 37 degrees C; mean EC50
Experimental endpoint: EC50

# annotated cases, reported EC50 shown
Cc1ccc2c(c1)[C@H]1CC[C@H](CC1)OC[C@H]1[C@@H](NS(C)(=O)=O)CCCN1C(=O)CO2 (stereo in doubt) : < 10 nM
Cc1ccnc2c1[C@H]1CC[C@H](CC1)OCC1[C@@H](NS(=O)(=O)C3CCOC3)CCCN1C(=O)CO2 (stereo in doubt) [Compound 90] : < 10 nM
CC1(S(=O)(=O)N[C@H]2CCCN3CCOc4ccccc4[C@H]4CC[C@H](CC4)OC[C@@H]23)CC1 (stereo in doubt) : 10 to 1000 nM
O=C1COc2cccc(F)c2[C@H]2CC[C@H](CC2)OCC2[C@@H](NS(=O)(=O)C(F)(F)F)CCCN12 (stereo in doubt) : < 10 nM
CS(=O)(=O)N[C@H]1CCCN2C(=O)COc3ccccc3[C@H]3CC[C@@H](OCC12)[C@H](O)C3 (stereo in doubt) : 10 to 1000 nM
Cc1cnc2c(c1)[C@H]1CC[C@H](CC1)OC[C@H]1[C@@H](NS(=O)(=O)C(C)C)CCCN1C(=O)CO2 (stereo in doubt) : < 10 nM

**Q:** Field request: EC50 | item: CC(C)S(=O)(=O)N[C@H]1CCCN2C(=O)COc3ncc(Cl)cc3[C@H]3CC[C@H](CC3)OC[C@@H]12 (stereo in doubt)
**A:** < 10 nM

**Q:** For the compound CC(C)(C)S(=O)(=O)N[C@H]1CCCN2CCOc3ccccc3[C@H]3CC[C@H](CC3)OC[C@@H]12 (stereo in doubt) , what EC50 is on record?
**A:** > 1000 nM

---

- Target entity: human orexin-2 receptor (OX2R) (Homo sapiens, UniProt O43614)
- Assay overview: Human OX2R IP1 assay
- Stated conditions: T-Rex CHO cells stably overexpressing human OX2R; IP1 accumulation; 1 hr at 37 degrees C; mean EC50
Entries and their measured EC50 follow.

O=C1COc2ncccc2[C@H]2CC[C@H](CC2)OC[C@H]2[C@@H](NS(=O)(=O)C3CC3)CCN12 (stereo in doubt) : < 10 nM
Cc1ncnc2c1[C@H]1CC[C@H](CC1)OC[C@H]1[C@@H](NS(=O)(=O)C(C)C)CCN1C(=O)CO2 (stereo in doubt) : 10 to 1000 nM
Cc1ccc2c(c1)OCCN1CCC[C@H](NS(C)(=O)=O)[C@@H]1CO[C@H]1CC[C@@H]2CC1 (stereo in doubt) : > 1000 nM
COC(=O)N1CCC[C@H](NS(C)(=O)=O)[C@@H]1CO[C@H]1CC[C@@H](c2ccccc2)CC1 [Reference Compound A, reference compound] : < 10 nM
Cc1ccnc2c1[C@H]1CC[C@H](CC1)OC[C@H]1[C@@H](NS(=O)(=O)C3CC3)CCCN1C(=O)CO2 (stereo in doubt) : < 10 nM

Now turn to the next compound.
**Q:** # get_value(readout='EC50', item= O=C1COc2ccccc2[C@H]2CC[C@H](CC2)OC[C@H]2[C@@H](NS(=O)(=O)CC3CCC3)CCCN12 (stereo in doubt) )
**A:** 10 to 1000 nM

---

- Tested on: MDR1
- Assay overview: MDCK-MDR1 permeability assay
- Format: in vitro ADME
- Stated conditions: dog, MDCK-MDR1, MDCK-MDR1 cells; test compound 3 μM; 2 hours at 37 degrees C; apical to basolateral
// assign y if Papp A→B at 2 h, 3 μM falls strictly below 0.8 ×10⁻⁶ cm/s, else n (ties count as n)

Here's what some known entries look like.
CC(C)S(=O)(=O)N[C@H]1CCCN2C(=O)COc3ncccc3C3CCC(CC3)OC[C@@H]12 (stereo in doubt) [Compound 15] : y
O=S(=O)(N[C@H]1CCCN2CCOc3ncccc3[C@H]3CC[C@H](CC3)OCC12)C1CC1 (stereo in doubt) [Compound 63] : n
CC(C)S(=O)(=O)N[C@H]1CCN2C(=O)COc3ncccc3[C@H]3CC[C@H](CC3)OCC12 (stereo in doubt) [Compound 101] : n
Cc1ncnc2c1[C@H]1CC[C@H](CC1)OCC1[C@@H](NS(=O)(=O)C3CC3)CCN1C(=O)CO2 (stereo in doubt) [Compound 83] : n
Cc1ccc2c(c1)OCC(=O)N1CCC[C@H](NS(C)(=O)=O)C1CO[C@H]1CC[C@@H]2CC1 (stereo in doubt) [Compound 40] : y

**Q:** Lab log: compare recorded Papp A→B at 2 h, 3 μM with 0.8 ×10⁻⁶ cm/s; is it strictly lower for Cc1ccnc2c1C1CCC(CC1)OC[C@H]1[C@@H](NS(=O)(=O)C(C)C)CCCN1C(=O)CO2 (stereo in doubt) [Compound 10] ?
**A:** y

---

- Target entity: human orexin-2 receptor (OX2R) (Homo sapiens)
- Assay overview: Human OX2R IP1 assay
- Stated conditions: T-Rex CHO cells stably overexpressing human OX2R; IP1 accumulation; 1 hr at 37 degrees C; mean EC50
Experimental endpoint: EC50

Some molecules with recorded EC50:
O=C1COc2ccccc2[C@H]2CC[C@H](CC2)OC[C@H]2[C@@H](NS(=O)(=O)C3CC3)CCCN12 (stereo in doubt) : < 10 nM
CC(C)S(=O)(=O)N[C@H]1CCN2C(=O)COc3c(F)cc(F)cc3[C@H]3CC[C@H](CC3)OC[C@@H]12 : < 10 nM
CC(C)S(=O)(=O)N[C@H]1CCCN2C(=O)COc3nccnc3[C@H]3CC[C@H](CC3)OC[C@@H]12 (stereo in doubt) : < 10 nM
O=C1COc2nnccc2[C@H]2CC[C@H](CC2)OC[C@H]2[C@@H](NS(=O)(=O)C3CC3)CCCN12 (stereo in doubt) : 10 to 1000 nM
Cc1ccnc2c1[C@H]1CC[C@H](CC1)OC[C@H]1[C@@H](NS(=O)(=O)C3COC3)CCN1C(=O)CO2 (stereo in doubt) : < 10 nM

**Q:** Param item = `Cc1cccc2c1[C@H]1CC[C@H](CC1)OC[C@H]1[C@@H](NS(C)(=O)=O)CCN1C(=O)CO2` ; retrieve measured EC50.
**A:** < 10 nM

---

- Target entity: human orexin-2 receptor (OX2R) (Homo sapiens, UniProt O43614)
- Assay overview: Human OX2R IP1 assay
- Stated conditions: T-Rex CHO cells stably overexpressing human OX2R; IP1 accumulation; 1 hr at 37 degrees C; mean EC50
pEC50: −log10 of the molar value.
Experimental endpoint: pEC50

Below are worked cases with known answers.
CC[C@H]1Oc2ccccc2[C@H]2CC[C@H](CC2)OCC2[C@@H](NS(C)(=O)=O)CCCN2C1=O (stereo in doubt) : > 8.00
Cc1ccnc2c1[C@H]1CC[C@H](CC1)OC[C@H]1[C@@H](NS(=O)(=O)C3CC3)CCN1C(=O)CO2 (stereo in doubt) : > 8.00
CC(C)S(=O)(=O)N[C@H]1CCCN2C(=O)COc3ccccc3[C@H]3CC[C@H](CC3)OC[C@@H]12 (stereo in doubt) : > 8.00
CC[C@@H](C)S(=O)(=O)N[C@H]1CCCN2C(=O)COc3ccccc3C3CCC(CC3)OC[C@@H]12 (stereo in doubt) : > 8.00
CS(=O)(=O)N[C@H]1CCCN2C(=O)COc3ccc(C#N)cc3[C@H]3CC[C@H](CC3)OC[C@@H]12 (stereo in doubt) : 6.00 to 8.00

**Q:** What does the data say about its pEC50? Entry: O=C1COc2ccccc2[C@H]2CC[C@H](CC2)OCC2[C@@H](NS(=O)(=O)C(F)(F)F)CCN12 (stereo in doubt)
**A:** > 8.00

**Q:** pEC50 lookup needed for Cc1ncnc2c1[C@H]1CC[C@H](CC1)OC[C@H]1[C@@H](NS(=O)(=O)C(C)C)CCCN1C(=O)CO2 (stereo in doubt) , thanks.
**A:** > 8.00

**Q:** Quick one: pEC50 of Cc1cccc2c1[C@H]1CC[C@H](CC1)OC[C@H]1[C@@H](NS(=O)(=O)C3CC3)CCN1C(=O)CO2 (stereo in doubt) ?
**A:** > 8.00

**Q:** Can you look up the measured pEC50 of O=S(=O)(CC1CC1)N[C@H]1CCCN2CCOc3ccccc3[C@H]3CC[C@H](CC3)OC[C@@H]12 (stereo in doubt) for me?
**A:** 6.00 to 8.00

**Q:** What measured pEC50 goes with Cc1ncnc2c1[C@H]1CC[C@H](CC1)OC[C@H]1[C@@H](NS(=O)(=O)C3CC3)CCN1C(=O)CO2 (stereo in doubt) ?
**A:** 6.00 to 8.00

**Q:** // query pEC50 value for entry CC[C@@H]1Oc2ccccc2[C@H]2CC[C@H](CC2)OCC2[C@@H](NS(C)(=O)=O)CCCN2C1=O (stereo in doubt)
**A:** > 8.00

**Q:** Please give the measured pEC50 for this molecule: Cc1c(Cl)ccc2c1[C@H]1CC[C@H](CC1)OC[C@H]1[C@@H](NS(=O)(=O)C3CC3)CCCN1C(=O)CO2 (stereo in doubt)
**A:** > 8.00
